# experiment-summary: Drug concentration in 5XFAD mouse plasma at 1200 ppm administered as rodent chow for 10 to 24 weeks
# Type: ADME, cell-free
# experimental-conditions: po, time 10-24 weeks
result-type: concentration (µM)

{"columns": ["compound", "unit-annotation", "observed-measurement"],
 "data": [
  ["COc1ncc(F)cc1CNc1ccc(Cc2c[nH]c3ncc(C)cc23)c(F)n1 [PLX-5622]", "µM", 13.5]
]}

---

# target: SRSF protein kinase 1 (Homo sapiens, UniProt Q96SB4)
# Sequence (Q96SB4 whole entry): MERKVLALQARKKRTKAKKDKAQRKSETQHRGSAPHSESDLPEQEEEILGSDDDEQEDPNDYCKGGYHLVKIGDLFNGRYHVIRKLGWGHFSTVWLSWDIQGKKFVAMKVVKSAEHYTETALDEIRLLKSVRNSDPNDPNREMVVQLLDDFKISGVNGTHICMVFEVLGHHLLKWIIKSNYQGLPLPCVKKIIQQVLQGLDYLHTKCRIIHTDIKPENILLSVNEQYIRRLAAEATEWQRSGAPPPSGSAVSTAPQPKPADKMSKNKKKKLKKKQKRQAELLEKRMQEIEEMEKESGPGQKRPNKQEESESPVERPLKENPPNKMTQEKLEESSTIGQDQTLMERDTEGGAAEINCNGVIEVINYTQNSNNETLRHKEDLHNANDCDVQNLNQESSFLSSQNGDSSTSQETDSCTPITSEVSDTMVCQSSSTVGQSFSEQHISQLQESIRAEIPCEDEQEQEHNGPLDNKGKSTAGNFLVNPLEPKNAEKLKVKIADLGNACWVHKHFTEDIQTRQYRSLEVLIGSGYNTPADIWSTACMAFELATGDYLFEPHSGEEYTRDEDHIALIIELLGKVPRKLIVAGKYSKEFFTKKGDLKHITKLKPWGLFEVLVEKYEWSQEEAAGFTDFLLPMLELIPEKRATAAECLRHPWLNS
pIC50: −log10 of the molar value.

{"columns": ["sample-smiles", "pIC50"],
 "data": [
  ["COc1ncc(F)cc1CNc1ccc(Cc2c[nH]c3ncc(C)cc23)c(F)n1", "< 6.00"]
]}

---

# target: Serine/threonine-protein kinase PAK 2 (Homo sapiens)
# Sequence (Q13177 whole entry): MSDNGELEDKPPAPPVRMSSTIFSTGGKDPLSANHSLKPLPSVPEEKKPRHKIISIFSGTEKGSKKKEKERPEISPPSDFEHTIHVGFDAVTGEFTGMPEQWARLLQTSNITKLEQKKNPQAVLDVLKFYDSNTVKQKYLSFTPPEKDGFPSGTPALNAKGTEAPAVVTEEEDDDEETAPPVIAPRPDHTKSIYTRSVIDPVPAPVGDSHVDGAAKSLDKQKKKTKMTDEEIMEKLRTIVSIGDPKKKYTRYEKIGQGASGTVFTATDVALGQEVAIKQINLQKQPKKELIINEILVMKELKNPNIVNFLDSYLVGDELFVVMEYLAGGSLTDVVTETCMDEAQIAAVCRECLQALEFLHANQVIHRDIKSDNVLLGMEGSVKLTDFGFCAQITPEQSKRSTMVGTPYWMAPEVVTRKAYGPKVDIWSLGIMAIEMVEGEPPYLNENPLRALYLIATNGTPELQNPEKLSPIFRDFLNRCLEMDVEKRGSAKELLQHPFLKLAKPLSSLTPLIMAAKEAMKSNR
pIC50: −log10 of the molar value.
result-type: pIC50

{"columns": ["sample-smiles", "observed-measurement"],
 "data": [
  ["COc1ncc(F)cc1CNc1ccc(Cc2c[nH]c3ncc(C)cc23)c(F)n1", "< 6.00"]
]}

---

# experiment-summary: Half-life in monkey at 1.35 mg/kg, iv administered as single dose
# Format: ADME, organism-based, Macaca mulatta
# experimental-conditions: rhesus monkey, in vivo

{"columns": ["sample-smiles", "unit-annotation", "half-life"],
 "data": [
  ["COc1ncc(F)cc1CNc1ccc(Cc2c[nH]c3ncc(C)cc23)c(F)n1", "h", 2.2]
]}

---

# target: Tyrosine-protein kinase FRK (Homo sapiens)
# Sequence (P42685 whole entry): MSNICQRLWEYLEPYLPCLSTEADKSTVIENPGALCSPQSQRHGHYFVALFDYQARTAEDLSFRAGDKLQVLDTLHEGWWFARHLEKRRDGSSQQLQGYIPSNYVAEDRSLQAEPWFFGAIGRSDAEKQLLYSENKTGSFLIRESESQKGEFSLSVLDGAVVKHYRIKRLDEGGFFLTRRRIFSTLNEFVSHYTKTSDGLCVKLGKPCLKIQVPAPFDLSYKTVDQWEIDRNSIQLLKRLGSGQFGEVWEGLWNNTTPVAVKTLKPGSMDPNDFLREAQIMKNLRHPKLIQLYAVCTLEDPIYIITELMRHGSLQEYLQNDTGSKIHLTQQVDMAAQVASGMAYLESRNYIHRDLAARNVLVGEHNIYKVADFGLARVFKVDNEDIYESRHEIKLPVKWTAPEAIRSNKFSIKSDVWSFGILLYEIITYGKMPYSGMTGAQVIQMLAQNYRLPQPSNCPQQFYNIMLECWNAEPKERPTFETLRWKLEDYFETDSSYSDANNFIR
result-type: IC50

{"columns": ["sample-smiles", "observed-measurement"],
 "data": [
  ["COc1ncc(F)cc1CNc1ccc(Cc2c[nH]c3ncc(C)cc23)c(F)n1", "> 1 µM"]
]}

---

# target: Leucine-rich repeat serine/threonine-protein kinase 2 (Homo sapiens)
# Sequence (Q5S007 whole entry): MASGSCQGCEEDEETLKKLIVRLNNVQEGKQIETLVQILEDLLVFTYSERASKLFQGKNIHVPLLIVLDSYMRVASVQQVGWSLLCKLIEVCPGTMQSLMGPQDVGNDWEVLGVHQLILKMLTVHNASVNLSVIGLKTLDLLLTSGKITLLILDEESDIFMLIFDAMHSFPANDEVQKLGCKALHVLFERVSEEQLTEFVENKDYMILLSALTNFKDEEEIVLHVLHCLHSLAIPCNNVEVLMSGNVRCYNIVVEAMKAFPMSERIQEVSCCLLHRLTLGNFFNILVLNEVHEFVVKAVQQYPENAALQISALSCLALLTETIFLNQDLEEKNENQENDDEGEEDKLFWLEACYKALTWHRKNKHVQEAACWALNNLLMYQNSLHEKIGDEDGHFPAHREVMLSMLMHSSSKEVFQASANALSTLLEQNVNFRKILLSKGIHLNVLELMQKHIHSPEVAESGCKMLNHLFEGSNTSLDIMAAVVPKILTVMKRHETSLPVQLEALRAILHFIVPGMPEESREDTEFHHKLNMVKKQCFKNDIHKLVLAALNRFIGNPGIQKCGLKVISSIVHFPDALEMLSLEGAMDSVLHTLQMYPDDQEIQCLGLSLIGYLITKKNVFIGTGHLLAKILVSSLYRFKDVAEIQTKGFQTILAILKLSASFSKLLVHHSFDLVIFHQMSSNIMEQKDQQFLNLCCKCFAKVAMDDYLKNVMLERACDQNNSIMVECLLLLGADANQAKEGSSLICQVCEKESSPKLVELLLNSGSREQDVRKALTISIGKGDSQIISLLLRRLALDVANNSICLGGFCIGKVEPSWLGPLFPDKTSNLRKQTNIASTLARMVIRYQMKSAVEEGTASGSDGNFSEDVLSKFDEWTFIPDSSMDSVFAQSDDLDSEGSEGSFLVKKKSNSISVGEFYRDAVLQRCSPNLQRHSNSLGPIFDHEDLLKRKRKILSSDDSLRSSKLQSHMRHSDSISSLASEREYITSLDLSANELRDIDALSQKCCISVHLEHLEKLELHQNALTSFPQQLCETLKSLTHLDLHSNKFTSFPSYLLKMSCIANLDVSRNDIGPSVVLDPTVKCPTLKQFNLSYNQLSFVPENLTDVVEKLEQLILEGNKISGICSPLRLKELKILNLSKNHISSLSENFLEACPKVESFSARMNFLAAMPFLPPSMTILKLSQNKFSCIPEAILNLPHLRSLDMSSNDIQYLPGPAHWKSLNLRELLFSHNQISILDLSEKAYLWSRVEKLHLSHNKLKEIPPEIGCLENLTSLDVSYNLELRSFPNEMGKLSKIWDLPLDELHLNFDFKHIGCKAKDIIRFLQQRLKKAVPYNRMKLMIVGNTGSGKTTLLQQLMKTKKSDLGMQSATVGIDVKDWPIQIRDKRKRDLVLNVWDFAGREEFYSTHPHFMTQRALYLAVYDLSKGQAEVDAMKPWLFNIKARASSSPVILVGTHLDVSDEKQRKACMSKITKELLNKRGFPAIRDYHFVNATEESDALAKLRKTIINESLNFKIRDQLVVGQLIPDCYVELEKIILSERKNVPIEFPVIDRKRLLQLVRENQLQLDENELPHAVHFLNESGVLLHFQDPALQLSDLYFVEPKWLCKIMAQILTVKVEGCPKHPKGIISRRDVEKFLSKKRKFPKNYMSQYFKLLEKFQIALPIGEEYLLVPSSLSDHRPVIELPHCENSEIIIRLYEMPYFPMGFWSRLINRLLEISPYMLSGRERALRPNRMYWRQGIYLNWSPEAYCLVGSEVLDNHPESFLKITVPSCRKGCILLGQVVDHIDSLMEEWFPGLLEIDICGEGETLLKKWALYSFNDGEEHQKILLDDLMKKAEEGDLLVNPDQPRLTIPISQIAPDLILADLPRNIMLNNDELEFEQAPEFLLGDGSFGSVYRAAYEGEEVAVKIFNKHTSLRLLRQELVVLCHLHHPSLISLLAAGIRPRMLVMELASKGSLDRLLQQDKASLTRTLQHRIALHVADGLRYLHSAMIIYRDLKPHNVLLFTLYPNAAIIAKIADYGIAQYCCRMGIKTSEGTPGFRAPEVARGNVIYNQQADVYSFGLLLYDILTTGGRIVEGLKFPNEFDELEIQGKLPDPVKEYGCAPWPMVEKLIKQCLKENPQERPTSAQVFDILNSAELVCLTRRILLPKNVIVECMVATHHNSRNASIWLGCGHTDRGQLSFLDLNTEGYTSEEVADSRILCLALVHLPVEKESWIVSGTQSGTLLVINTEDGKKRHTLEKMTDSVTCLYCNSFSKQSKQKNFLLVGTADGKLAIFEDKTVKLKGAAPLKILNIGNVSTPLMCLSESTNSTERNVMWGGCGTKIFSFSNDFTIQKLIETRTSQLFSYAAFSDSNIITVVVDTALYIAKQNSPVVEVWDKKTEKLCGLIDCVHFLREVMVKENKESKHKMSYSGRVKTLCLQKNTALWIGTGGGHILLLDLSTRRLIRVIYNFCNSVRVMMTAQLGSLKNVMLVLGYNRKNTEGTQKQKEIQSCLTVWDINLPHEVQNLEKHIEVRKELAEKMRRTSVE
result-type: IC50

{"columns": ["compound", "result-type", "observed-measurement"],
 "data": [
  ["COc1ncc(F)cc1CNc1ccc(Cc2c[nH]c3ncc(C)cc23)c(F)n1 [PLX-5622]", "IC50", "> 1000 nM"]
]}

---

# target: Dual specificity tyrosine-phosphorylation-regulated kinase 1B (Homo sapiens, UniProt Q9Y463)
# Sequence (Q9Y463 whole entry): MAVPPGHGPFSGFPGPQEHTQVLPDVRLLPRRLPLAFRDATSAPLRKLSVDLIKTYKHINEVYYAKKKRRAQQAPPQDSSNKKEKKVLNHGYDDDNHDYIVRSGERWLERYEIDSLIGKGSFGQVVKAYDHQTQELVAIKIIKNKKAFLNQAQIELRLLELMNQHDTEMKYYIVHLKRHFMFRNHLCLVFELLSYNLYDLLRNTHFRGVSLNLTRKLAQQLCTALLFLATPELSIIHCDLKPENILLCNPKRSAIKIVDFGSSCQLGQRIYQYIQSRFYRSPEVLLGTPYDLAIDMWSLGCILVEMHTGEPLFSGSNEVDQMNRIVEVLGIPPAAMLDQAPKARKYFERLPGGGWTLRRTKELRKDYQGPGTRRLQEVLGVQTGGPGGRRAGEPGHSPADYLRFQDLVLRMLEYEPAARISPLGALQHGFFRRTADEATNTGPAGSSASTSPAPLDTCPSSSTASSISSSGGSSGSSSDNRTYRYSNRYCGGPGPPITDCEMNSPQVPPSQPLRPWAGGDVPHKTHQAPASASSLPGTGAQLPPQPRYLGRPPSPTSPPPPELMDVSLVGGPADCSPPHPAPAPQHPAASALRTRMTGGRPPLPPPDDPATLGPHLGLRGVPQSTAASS

{"columns": ["sample-smiles", "IC50"],
 "data": [
  ["COc1ncc(F)cc1CNc1ccc(Cc2c[nH]c3ncc(C)cc23)c(F)n1", "> 1 µM"]
]}

---

# target: Ephrin type-A receptor 3 (Homo sapiens)
# Sequence (P29320 whole entry): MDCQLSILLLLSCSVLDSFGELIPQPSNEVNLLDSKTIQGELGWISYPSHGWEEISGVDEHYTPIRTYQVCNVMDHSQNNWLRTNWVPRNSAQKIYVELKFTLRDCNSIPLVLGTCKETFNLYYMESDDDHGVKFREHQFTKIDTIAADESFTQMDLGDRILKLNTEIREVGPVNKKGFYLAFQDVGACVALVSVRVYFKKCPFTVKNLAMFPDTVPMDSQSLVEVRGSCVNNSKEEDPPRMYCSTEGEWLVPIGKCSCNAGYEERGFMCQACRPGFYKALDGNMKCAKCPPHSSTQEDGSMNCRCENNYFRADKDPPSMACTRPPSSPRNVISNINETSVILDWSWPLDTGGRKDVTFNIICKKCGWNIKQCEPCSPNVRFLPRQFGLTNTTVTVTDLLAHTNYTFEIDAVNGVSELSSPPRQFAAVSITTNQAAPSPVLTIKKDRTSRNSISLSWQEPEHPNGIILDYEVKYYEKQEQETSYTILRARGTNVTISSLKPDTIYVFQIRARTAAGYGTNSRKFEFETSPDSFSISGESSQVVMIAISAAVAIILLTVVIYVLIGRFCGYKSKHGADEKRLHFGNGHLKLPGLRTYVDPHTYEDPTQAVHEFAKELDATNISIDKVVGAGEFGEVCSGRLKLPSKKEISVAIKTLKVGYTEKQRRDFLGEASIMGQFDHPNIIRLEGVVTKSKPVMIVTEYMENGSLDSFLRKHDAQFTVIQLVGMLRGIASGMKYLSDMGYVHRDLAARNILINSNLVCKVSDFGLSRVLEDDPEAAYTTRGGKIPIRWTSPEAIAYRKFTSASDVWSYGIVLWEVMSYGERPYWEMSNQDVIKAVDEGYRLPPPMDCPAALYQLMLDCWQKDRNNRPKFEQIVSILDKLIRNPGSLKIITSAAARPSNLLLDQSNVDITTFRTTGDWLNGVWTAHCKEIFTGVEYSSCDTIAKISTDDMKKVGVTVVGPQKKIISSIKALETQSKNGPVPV

{"columns": ["molecule", "target", "IC50"],
 "data": [
  ["COc1ncc(F)cc1CNc1ccc(Cc2c[nH]c3ncc(C)cc23)c(F)n1 [PLX-5622]", "Ephrin type-A receptor 3 (Homo sapiens)", "> 1000 nM"]
]}
